Ref: patent US20220195023A1

- Target of assay: (NVDP)3(NANP)2 (Plasmodium falciparum)
- Test description: BLI, target on sensor
Recorded metric: Kd (nM)
The figure you give is taken to be in nM; do not add the unit.

Q: Need Kd, item AB-007041 (antibody, V domains shown) VH: QMQLVESGGGVVQPGRSLRLSCTASGFTFSDYAMHWVRQSPGQGLQWVAVISYHSTNKYYEDSVRGRFTISRDNSKNTLYLQMNSLRAEDTAVYYCARDGYSSSFFDFWGQGTLVTVSS VL: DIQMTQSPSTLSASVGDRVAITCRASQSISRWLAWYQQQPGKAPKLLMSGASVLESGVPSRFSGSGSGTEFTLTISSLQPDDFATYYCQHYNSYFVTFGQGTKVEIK
Ans: 6.65

Q: How about this binder: AB-007037 (antibody, V domains shown) VH: QMQLVESGGGVVQPGRSLRLSCTASGFTFSTYAMHWVRQSPGQGLQWVAVISYHSTNKYYEDSVKGRFTISRDNSKNTLYLQMNSLRAEDTAVYYCARDGYSSSFFDFWGQGTLVTVSS VL: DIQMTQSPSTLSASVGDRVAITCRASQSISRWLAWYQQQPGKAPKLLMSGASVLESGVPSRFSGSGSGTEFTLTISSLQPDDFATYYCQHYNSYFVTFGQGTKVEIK
Ans: 4.44

Q: How about this binder: AB-007049 (antibody, V domains shown) VH: QMQLVESGGGVVQPGRSLRLSCTASGFTFSTYAMHWVRQSPGQGLQWVAVISNHETNKYYEDSVRGRFTISRDNSKNTLYLQMNSLRAEDTAVYYCARDGYSSSFFDFWGQGTLVTVSS VL: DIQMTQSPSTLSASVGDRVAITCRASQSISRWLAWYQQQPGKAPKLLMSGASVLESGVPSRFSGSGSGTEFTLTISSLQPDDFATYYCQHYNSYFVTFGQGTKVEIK
Ans: 13

Q: How about this binder: AB-007057 (antibody, V domains shown) VH: QMQLVESGGGVVQPGRSLRLSCTASGFTFSTYAMHWVRQSPGQGLQWVAVISYHSTNKYYEDSVRGRFTISRDNSKNTLYLQMNSLRAEDTAVYYCARDGYHSSFFDFWGQGTLVTVSS VL: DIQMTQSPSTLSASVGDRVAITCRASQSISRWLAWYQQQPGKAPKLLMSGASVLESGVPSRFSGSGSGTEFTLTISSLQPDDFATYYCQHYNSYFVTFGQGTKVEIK
Ans: 11.2

New cases:
Q: Need Kd, item AB-007042 (antibody, V domains shown) VH: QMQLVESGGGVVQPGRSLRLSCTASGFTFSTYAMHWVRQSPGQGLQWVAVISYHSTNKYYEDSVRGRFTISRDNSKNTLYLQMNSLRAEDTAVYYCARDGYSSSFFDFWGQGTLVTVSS VL: DIQMTQSPSTLSASVGDRVAITCRASQDISRWLAWYQQQPGKAPKLLMSGASVLESGVPSRFSGSGSGTEFTLTISSLQPDDFATYYCQHYNSYFVTFGQGTKVEIK
Ans: 3.9

Q: How about this binder: AB-007031 (antibody, V domains shown) VH: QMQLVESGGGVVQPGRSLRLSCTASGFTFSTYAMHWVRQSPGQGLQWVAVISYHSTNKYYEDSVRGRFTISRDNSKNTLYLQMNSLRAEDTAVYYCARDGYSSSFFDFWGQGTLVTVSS VL: DIQMTQSPSTLSASVGDRVAITCRASQSISRWLAWYQQQPGKAPKLLISGASVLESGVPSRFSGSGSGTEFTLTISSLQPDDFATYYCQHYNSYFVTFGQGTKVEIK
Ans: 3.5
